tested on: COLO 205 colon; experiment: NCI tumour cell line growth inhibition, 48 h
Metric name: TGI (µM)
All answers are understood in µM, so give the number only.

- Molecule: "O=S(=O)(/N=C(\\NO)Nc1ccc(Cl)cc1)c1cc2ccccc2o1"
  Experimental value: 51.1
- Molecule: "C=CCCCC(=O)CCC(=O)OCC1O[C@@H](O[C@@H]2C(O)[C@@H](OC(C)=O)C(C)O[C@H]2O[C@H](CC=C)CCCCC)C(O)[C@@H](OC(=O)/C(C)=C/C)[C@@H]1OC(=O)/C=C/c1ccccc1 (stereo not given in full)"
  Experimental value: 1.55
- Molecule: "N#Cc1c(C#N)c(SSc2c(C#N)c(C#N)c(N)n2-c2ccc(F)cc2)n(-c2ccc(F)cc2)c1N"
  Experimental value: 3.76

Inquiry: Value wanted: TGI (COLO 205 colon) of entry O=c1c2ccccc2sc2nc(CCl)nn12
Reply text: 30.2

----------
A collection of compounds and their measured GI50
system: IGROV1 ovarian; assay: NCI tumour cell line growth inhibition, 48 h

- Molecule smiles: "COc1ccc(C(=O)NCCNc2nccc(-c3c(-c4ccc(F)cc4)nc4sccn34)n2)cc1"
  Experimental value: "2.53 µM"

Inquiry: Value wanted: GI50 (IGROV1 ovarian) of entry Cc1c(-c2ccc(O)c(O)c2)oc(=O)c2c(O)cc(O)cc12
Reply text: 2.3 µM

Inquiry: Note, next up: CCCCCCCCCCCCCCNc1nc(C(=O)OCC)ncc1-c1ccc(C(F)(F)F)cc1
Reply text: > 100 µM

Inquiry: Note, next up: CO/N=C(\COc1ccc2c(=O)cc(-c3ccccc3)oc2c1)c1ccc(F)cc1
Reply text: 21.9 µM

Inquiry: Note, next up: COc1ccc(C(=O)/C=C/c2ccc(OCc3ccc(Cl)cc3)cc2)cc1OC
Reply text: 118 µM

Inquiry: Note, next up: Cn1cc(-c2ccc(-c3cn(C)c4ncccc34)[nH]2)c2cccnc21
Reply text: 4.5 µM

----------
tested on: SNB-19 CNS; test: NCI tumour cell line growth inhibition, 48 h
A collection of molecules and their measured TGI

# annotated cases, reported TGI shown
- Molecule: "Cc1ccc2nc3ccccc3c(NCc3ccccc3)c2c1"
  Metric name: "TGI"
  Experimental value: "11 µM"
- Molecule: "CN(C)CCCNC(=S)S"
  Metric name: "TGI"
  Experimental value: "> 100 µM"
- Molecule: "CCOC(=O)C(C(N)=O)c1nc2cc([N+](=O)[O-])ccc2nc1/C=C(\\O)c1ccccc1 (stereo not drawn)"
  Metric name: "TGI"
  Experimental value: "44.5 µM"
- Molecule: "COc1ccc2oc(=O)cc(C3c4ccc([nH]4)C(c4cc(=O)oc5ccc(OC)cc45)c4ccc([nH]4)C(c4cc(=O)oc5ccc(OC)cc45)c4ccc([nH]4)C(c4cc(=O)oc5ccc(OC)cc45)c4ccc3[nH]4)c2c1 (stereo not drawn)"
  Metric name: "TGI"
  Experimental value: "18.3 µM"
- Molecule: "CN(C)c1ccc(/C=C2\\N=C(N/N=C/c3ccc(N(C)C)cc3)NC2=O)cc1"
  Metric name: "TGI"
  Experimental value: "> 100 µM"

Inquiry: Which value of TGI has been reported for C=CCNC(=O)NNC(O)(C(=O)OCC)C(F)(F)F (stereo not drawn) in the records?
Reply text: > 100 µM

Inquiry: Note, next up: CO[C@@H]1[C@H](O)CC[C@]2(CO2)[C@H]1[C@@]1(C)O[C@@H]1CC=C(C)C
Reply text: > 200 µM

Inquiry: Note, next up: Cn1ccnc1Cn1cc(-c2cccc(-c3cn[nH]c3)c2)cn1
Reply text: > 100 µM

Inquiry: Note, next up: CC(=O)Oc1cc2c[n+](C)c3c4cc(OC(C)=O)c(OC(C)=O)cc4ccc3c2cc1OC(C)=O
Reply text: > 100 µM

Inquiry: Note, next up: COC(=O)c1ccccc1C1CN=NC12Cc1c(C)cccc1C2=O (stereo not drawn)
Reply text: > 100 µM

Inquiry: Note, next up: N#Cc1cc(-c2nc3cc(F)ccc3s2)ccc1N
Reply text: > 66.6 µM

Inquiry: Note, next up: Cc1ccc(S(=O)(=O)N2CCCN(S(=O)(=O)c3ccc(C)cc3)CC2)cc1
Reply text: > 100 µM

Where do the numbers come from? From PubChem BioAssay (NCI).
